Test system: KM12
Assay: NCI tumour cell line growth inhibition, 48 h
Active and inactive are the calls of the source. No stated cut-off is given here; in the data, active = GI50 up to about 1.1 µM and inactive = higher.
Outcomes: active, inactive

{"COMPOUND": "c1ccc2sc(SCSc3nc4ccccc4s3)nc2c1", "QUALITATIVE_LABEL": "inactive"}
{"COMPOUND": "O=C1c2ccccc2-n2c1nc1ccc([N+](=O)[O-])cc1c2=O", "QUALITATIVE_LABEL": "inactive"}
{"COMPOUND": "Cc1ccc(S(=O)(=O)N2CCc3cc(O)c([N+](=O)[O-])cc32)cc1", "QUALITATIVE_LABEL": "inactive"}
{"COMPOUND": "C/C=C/[C@H]1O[C@@](O)([C@@H](C)[C@H](O)[C@H](C)[C@H]2OC(=O)/C(OC)=C/C(C)=C/[C@@H](C)[C@@H](O)[C@@H](CC)[C@@H](O)[C@H](C)C/C(C)=C/C=C/[C@@H]2OC)C[C@H](OC2CC(O)C(O)C(C)O2)[C@@H]1C (some centres undefined)", "QUALITATIVE_LABEL": "active"}
{"COMPOUND": "CCc1n[nH]c(=O)n1CCCCCCCCn1c(CC)n[nH]c1=O", "QUALITATIVE_LABEL": "inactive"}
{"COMPOUND": "COc1ccc(/C=N/N=C(\\N)NO)c(Cl)c1O", "QUALITATIVE_LABEL": "inactive"}
{"COMPOUND": "COc1cc(/C=c2\\sc3n(c2=O)C(c2ccc(Cl)cc2)C2=C(CCCC2C)N=3)cc(OC)c1OC (centres undefined)", "QUALITATIVE_LABEL": "inactive"}
{"COMPOUND": "O=c1ccn([C@@H]2C[C@@H]2CO)c(=O)[nH]1", "QUALITATIVE_LABEL": "inactive"}
{"COMPOUND": "O=C(Nc1ccccc1)n1cc(-c2ccccn2)c(N2CCOCC2)n1", "QUALITATIVE_LABEL": "inactive"}
